Test system: HOP-62 NSCLC
assay_explanation: NCI-60 one-dose screen, 48 h
settings: 10 µM unless noted
Compounds without any hit were thinned out: in the full panel of roughly 83,000, 20% have a hit. Activity calls are given as the source filed them. Rule for the calls: active = growth percent below 10; inactive = the rest.
Respond only with the outcome that fits, drawn from yes = active, no = inactive

Here are 4 molecules together with their reported answers.
C=C(C[C@](O)(C(=O)/C=C/c1ccc(Cl)cc1)C(=O)OC)c1ccccc1 :: no
CCCCN(CCCC)CCCOC(=O)c1ccc(N)cc1 :: no
COc1ccc(C2=NNC(c3cc(Cc4ccc(O)c(C5CC(c6ccc(OC)cc6)=NN5)c4)ccc3O)C2)cc1 (stereo unspecified) :: no
C[n+]1c2ccccc2c(Nc2ccc(N3CCCCC3)cc2)c2[nH]c3ccccc3c21 :: yes

## Task What did this assay record as the result for "O=C1/C(=C/c2ccc([N+](=O)[O-])s2)Oc2ccc(Br)cc21" ?
## Result yes

All figures here come from PubChem BioAssay (NCI).
